These entries and their values trace back to patent US8916527B2.

# procedureDetails: physchem
# Type: physicochemical
# measurementContext: water; read-out: Aqueous solubility
readoutKind: solubility

Quote solubility reported for CCc1c(Cl)c(O)c(Cl)c(O)c1C(=O)O[C@H]1[C@H](O)[C@H](OC)[C@H](OC/C2=C\C=C\C[C@H](O)/C(C)=C/[C@H](CC)[C@@H](O[C@@H]3OC(C)(C)[C@@H](O)[C@H](O)[C@@H]3O)/C(C)=C/C(C)=C/C[C@@H]([C@@H](C)O)OC2=O)O[C@@H]1C please.
~300 mg/mL
